// EC50 lookup, one value per entry
system.under.test: T1, HLA-A*0201 HLA class I MHC monomer (iTopia Epitope Discovery System, coated on plate) (human)
T1 construct: Placeholder peptide stripped; also called HLA-A2; MHC class I monomer
assay.info: iTopia EDS affinity assay; peptide titration (ED50)

ALLHSKYGL (Synthetic nonapeptide of human nectin4; the range counts on nectin4; also called Pep N° 80) [Nectin4 peptide 80 (ALLHSKYGL)]: ~100 nM
VLVPPLPSL (Synthetic nonapeptide of human nectin4; the range counts on nectin4) [antigen peptide N4-145 (VLVPPLPSL)]: ~100 nM

Let us move to another entry and its EC50.
Name the recorded EC50 for LLASFTGRC (Synthetic nonapeptide of human nectin4; the range counts on nectin4; also called Pep N° 21) [Nectin4 peptide 21 (LLASFTGRC)] .
~100 nM
